Values from paper PMC9655037

- assay-summary: Tissue distribution of TET after a single i.t. administration in normal and LPS-treated mice
- study-conditions: BALB/c, mouse, in vivo, inhaled or intranasal, 15 mg/kg, AUC(0-t), normal mice; 15 mg/kg i.t.; stomach
result-type: AUC(0-t) (µg·h/mL)
# value in µg·h/mL; strip the unit string

Req: What does the record list as AUC(0-t) for COc1ccc2cc1Oc1ccc(cc1)C[C@H]1c3cc(c(OC)cc3CCN1C)Oc1c(OC)c(OC)cc3c1[C@H](C2)N(C)CC3 [TET, Tetrandrine] ?
Resp: 929

###

- assay-summary: Tissue distribution of TET after a single i.t. administration in normal and LPS-treated mice
- study-conditions: BALB/c, mouse, kidney, inhaled or intranasal, 15 mg/kg, Tmax, normal mice; 15 mg/kg i.t.
result-type: Tmax
Don't forget the unit after the number, please.

Req: Entry COc1ccc2cc1Oc1ccc(cc1)C[C@H]1c3cc(c(OC)cc3CCN1C)Oc1c(OC)c(OC)cc3c1[C@H](C2)N(C)CC3 has what Tmax?
Resp: 3.33 h

###

- assay-summary: Tissue distribution of TET after a single i.t. administration in normal and LPS-treated mice
- study-conditions: BALB/c, mouse, in vivo, inhaled or intranasal, 15 mg/kg, AUC(0-t), normal mice; 15 mg/kg i.t.; muscle
result-type: AUC(0-t) (µg·h/mL)
Field: numeric (µg·h/mL). Do not append units.

Req: Reported AUC(0-t) for COc1ccc2cc1Oc1ccc(cc1)C[C@H]1c3cc(c(OC)cc3CCN1C)Oc1c(OC)c(OC)cc3c1[C@H](C2)N(C)CC3 : what is it?
Resp: 359

###

- assay-summary: Tissue distribution of TET after a single i.t. administration in normal and LPS-treated mice
- study-conditions: BALB/c, mouse, muscle, inhaled or intranasal, 15 mg/kg, Tmax, LPS-treated mice; 15 mg/kg i.t.
result-type: Tmax (h)
The reply should be a number in h, with the unit left off.

Req: Please give the measured Tmax for this molecule: COc1ccc2cc1Oc1ccc(cc1)C[C@H]1c3cc(c(OC)cc3CCN1C)Oc1c(OC)c(OC)cc3c1[C@H](C2)N(C)CC3
Resp: 6.67

###

- assay-summary: Tissue distribution of TET after a single i.t. administration in normal and LPS-treated mice
- study-conditions: BALB/c, mouse, heart, inhaled or intranasal, 15 mg/kg, Tmax, LPS-treated mice; 15 mg/kg i.t.
result-type: Tmax (h)
Value expressed in h; do not type the unit.

Req: I would be grateful if you could share the reported Tmax for COc1ccc2cc1Oc1ccc(cc1)C[C@H]1c3cc(c(OC)cc3CCN1C)Oc1c(OC)c(OC)cc3c1[C@H](C2)N(C)CC3 .
Resp: 4

###

Overview of recorded Papp B→A at 2 h for various compounds
- assay-summary: Bidirectional transport in MOCK LLC-PK1 cells
- study-conditions: pig
A number alone suffices; assume ×10⁻⁶ cm/s.

Examples with their reported Papp B→A at 2 h follow.
# compound, recorded-value
measured = [
    ("C[C@H]1O[C@@H](O[C@H]2[C@@H](O)C[C@H](O[C@H]3[C@@H](O)C[C@H](O[C@H]4CC[C@@]5(C)[C@H](CC[C@@H]6[C@@H]5C[C@@H](O)[C@]5(C)[C@@H](C7=CC(=O)OC7)CC[C@]65O)C4)O[C@@H]3C)O[C@@H]2C)C[C@H](O)[C@@H]1O", 1.74),
    ("COCCc1ccc(OCC(O)CNC(C)C)cc1 (stereo not drawn)", 25),
]

Could you now consider this next compound?
Req: # get_value(readout='Papp B→A at 2 h', item= COc1ccc2cc1Oc1ccc(cc1)C[C@H]1c3cc(c(OC)cc3CCN1C)Oc1c(OC)c(OC)cc3c1[C@H](C2)N(C)CC3 )
Resp: 3.83
